Origin of measurements: PubChem BioAssay (Tox21)

# PROTOCOL_NOTES: qHTS assay to identify small molecule agonists of the estrogen receptor beta (ER-beta) signaling pathway - cell viability counter screen (AID 1259380); also: nearly all actives have a fitted effect of over 30% in size
# EXPERIMENTAL_CONDITIONS: ER-beta-bla HEK293T viability, CellTiter-Glo luminescence, 16 h; series mostly up to 92.4 µM
Inconclusive results are not listed. Active and inactive are the calls of the source. Calls follow the shape of the dose curve; as a rule, active = well fitted cell-killing curve with a large enough effect in the repeat runs; inconclusive = weak or mixed curves, or effect the other way; inactive = flat fitted curve, though single readings scatter.
The categories you may choose from are True for active, False for inactive

COMPOUND: O=C(CCCN1CC=C(n2c(=O)[nH]c3ccccc32)CC1)c1ccc(F)cc1
CLASS_NAME: True
//
COMPOUND: CC1(CN2CCC(n3c(=O)[nH]c4ccccc43)CC2)OCc2ccccc2-n2cccc21 (configuration not stated)
CLASS_NAME: True
//
COMPOUND: COc1ccccc1N1CCN(CC(O)COc2cccc3ccccc23)CC1 (configuration not stated)
CLASS_NAME: True

Q: Status in this test for CC(CC1c2ccccc2CCc2ccccc21)CN(C)C (configuration not stated) ?
Result: True

Q: Status in this test for `O=C1c2ccccc2C(=O)N1CCc1noc(-c2ccc(CN3CCCCCC3)s2)n1` ?
Result: True

Q: Status in this test for `CNC(=O)c1cnn(-c2nc(N)c3ncn([C@@H]4O[C@H](CO)[C@@H](O)[C@H]4O)c3n2)c1` ?
Result: False

Q: Status in this test for CC1CC(C)C(=O)C1=O (configuration not stated) ?
Result: False

---

# PROTOCOL_NOTES: qHTS assay to identify small molecule antagonists of the farnesoid-X-receptor (FXR) signaling pathway - cell viability counter screen (AID 743221); also: nearly all actives have a fitted effect of over 50% in size
# EXPERIMENTAL_CONDITIONS: FXR-bla HEK293T viability, CellTiter-Glo luminescence, 16 h; series mostly up to 62.6 µM
Inconclusive results are not listed. The source made the active and inactive calls. Calls come from the whole dose curve; as a rule, active = well fitted cell-killing curve with a large enough effect in the repeat runs (not every such curve was filed as active); inconclusive = weak or mixed curves, or effect the other way; inactive = no such curve, though single readings can be large or run the other way.
The categories you may choose from are active, inactive

COMPOUND: C=CC(=O)[O-].C=CC(=O)[O-].[Zn+2]
CLASS_NAME: inactive

Q: Status in this test for `CO/N=C(/C(=O)N[C@@H]1C(=O)N2C(C(=O)O)=C(COC(N)=O)CS[C@H]12)c1ccco1` ?
Result: inactive

Q: Status in this test for `C1C[C@@H]2[C@H]3CC[C@H](C3)[C@@H]2C1` ?
Result: inactive

Q: Status in this test for `CN(C(=O)CN(CCO)CC(=O)N(C)C(C)(C)Cc1ccccc1)C(C)(C)Cc1ccccc1` ?
Result: inactive

Q: Status in this test for `CCOC(=O)/C=C/C(=O)OCC` ?
Result: inactive

Q: Status in this test for `CN1CC(=O)N2[C@H](c3ccc4c(c3)OCO4)c3[nH]c4ccccc4c3C[C@@H]2C1=O` ?
Result: inactive

Q: Status in this test for `CC1(C)O[C@@H]2C[C@H]3[C@@H]4C[C@H](F)C5=CC(=O)C=C[C@]5(C)[C@H]4[C@@H](O)C[C@]3(C)[C@]2(C(=O)CO)O1` ?
Result: inactive

Q: Status in this test for CN1CCCN=C1COC(=O)C(O)(c1ccccc1)C1CCCCC1 (stereo unspecified) ?
Result: inactive

Q: Status in this test for `Cc1ccc(OC(=O)c2ccccc2O)cc1` ?
Result: inactive

---

# PROTOCOL_NOTES: qHTS assay to identify small molecule antagonists of the sonic hedgehog signaling (Shh) pathway (AID 1259369); also: nearly all actives have a fitted effect of over 45% in size
# EXPERIMENTAL_CONDITIONS: NIH/3T3 Gli1-Luc reporter, Shh antagonist, luminescence 24 h; series mostly up to 92.4 µM
Inconclusive results are not listed. Active and inactive are the calls of the source. Calls come from the whole dose curve.
The categories you may choose from are active, inactive

Worked set:
COMPOUND: CCC1(CO)COCOC1
CLASS_NAME: inactive
//
COMPOUND: CCc1ccccc1
CLASS_NAME: inactive
//
COMPOUND: CCCCCCCCC(CCCCCC)C(=O)O (stereo not drawn)
CLASS_NAME: inactive
//
COMPOUND: C[C@@H]1CC(=O)NN=C1c1ccc(NN=C(C#N)C#N)cc1
CLASS_NAME: active
//
COMPOUND: CCC1CO1 (stereo not drawn)
CLASS_NAME: inactive

Q: Status in this test for CCCCC(CC)COP(=O)(O)O (stereo not drawn) ?
Result: inactive

Q: Status in this test for `C[C@H]1C[C@H](O)c2ccsc2S1(=O)=O` ?
Result: inactive

Q: Status in this test for `CCCCN(CCN(CCCC)C(=O)N1CCOCC1)C(=O)N1CCOCC1` ?
Result: active
